# Test system: Plasmodium falciparum Sir2 (PF13_0152, Sir2A)
# Assay Comment: Plasmodium falciparum Sir2A binding compounds – biochemical, small-molecule microarray, 635 nm fluorescence, primary screen (AID 1098);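 note: score merges spot fluorescence intensity with its signal-to-noise ratio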
# Assay Setup: fluorescence 635 nm, higher = more signal
Quick reference: composite z-score of the listed items.
Give only the figure.

O=S(=O)(NCCCO)c1ccc(Br)cc1 :: 0.373

Task: Value lookup for composite z-score; key = C=C[C@H](OC)[C@@H](OC(=O)Nc1ccc(SC)cc1)c1ccc(OCCO)cc1
Result: 1.08

Task: Can you look up the measured composite z-score of C[n+]1ccc2ccc(O)cc2c1 for me?
Result: -0.0574
